# IC50 measurements, system: hBPGM (Homo sapiens (Human), UniProt P07738)
# Sequence (P07738 whole entry, looked up): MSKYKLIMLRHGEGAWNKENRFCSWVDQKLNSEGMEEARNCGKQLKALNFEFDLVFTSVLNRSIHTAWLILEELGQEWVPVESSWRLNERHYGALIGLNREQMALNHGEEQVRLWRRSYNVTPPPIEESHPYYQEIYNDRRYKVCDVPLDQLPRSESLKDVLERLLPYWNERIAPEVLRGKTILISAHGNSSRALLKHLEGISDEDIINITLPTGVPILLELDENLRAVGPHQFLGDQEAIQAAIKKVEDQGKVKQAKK
Expressed in nM, but write only the number.

Some compounds with recorded IC50:
Cc1nc(Cn2ccccc2=O)sc1-c1cccc(-c2ccc(C(=O)O)c(O)c2)n1    760
Cc1nc(COc2ncccn2)sc1-c1cccc(-c2cc(O)c(C(=O)O)cc2F)n1    40
Cc1nc(C(C)NC(=O)c2cccnn2)sc1-c1csc(-c2cc(O)c(C(=O)O)cc2F)n1 (stereo not shown)    65
Cc1nc(Cc2ccccc2)sc1-c1csc(-c2cc(O)c(C(=O)O)cc2F)n1 [Example 182]    560
Cc1nc(C)c(-c2csc(-c3cc(O)c(C(=O)O)c(F)c3)n2)s1    760

Return reported IC50; argument: Cc1nc(C)c(-c2csc(-c3ccc(C(=O)O)c(O)c3)n2)s1 [Example 315]
1400

Please give the measured IC50 for this compound: CC(=O)NCc1nc(C)c(-c2cccc(-c3ccc(C(=O)O)c(O)c3)c2)s1
900

Requested field: IC50. Item: Cc1nc(COc2cccc(C#N)c2)sc1-c1cccc(-c2ccc(C(=O)O)c(O)c2)c1
3200

Given the entry Cc1nc(CNC(=O)OCC(F)(F)F)sc1-c1csc(-c2cc(O)c(C(=O)O)cc2F)n1 , report its measured IC50.
310

What measured IC50 goes with Cc1nc(C)c(-c2coc(-c3ccc(C(=O)O)c(O)c3)n2)s1 ?
8000

---

- measurement-target: UniProt P07738
Binary label based on IC50 with cut-off 2000 nM: below gives true (1), not below gives false (0).

Solved cases (5 shown):
Cc1nc(CN2CCOC2=O)sc1-c1cccc(-c2ccc(C(=O)O)c(O)c2)c1 [Example 263]    true (1)
Cc1nc(CNC(=O)OCCN(C)C)sc1-c1csc(-c2cc(O)c(C(=O)O)cc2F)n1 [Example 114]    true (1)
Cc1nc(CCc2ccccc2)sc1-c1cccc(-c2ccc(C(=O)O)c(O)c2)c1 [Example 109]    false (0)
Cc1nc(COCC(C)(C)O)sc1-c1cccc(-c2ccc(C(=O)O)c(O)c2)c1 [Example 335]    true (1)
Cc1ccc(C#N)c(OCCn2cc(-c3cccc(-c4ccc(C(=O)O)c(O)c4)c3)c(C)n2)n1 [Example 112]    false (0)

Lab note: IC50 threshold 2000 nM. Does this compound come in strictly under it? Cc1nc(COc2ccc(C(F)(F)F)nn2)sc1-c1cccc(-c2ccc(C(=O)O)cc2)n1 [Example 48]
true (1)

State whether 2000 nM exceeds IC50 recorded for Cc1nc(COc2ccccn2)sc1-c1cccc(-c2ccc(C(=O)O)nc2)c1 [Example 58] .
false (0)

Consider the compound Cc1nc(COc2ncccn2)sc1-c1cccc(-c2ccc(C(=O)O)cc2C(C)C)n1 [Example 28] . Is its IC50 strictly less than 2000 nM?
false (0)

I wonder whether Cc1ccc(C#N)c(OCCc2ccn(-c3cccc(-c4ccc(C(=O)O)c(O)c4)c3)n2)n1 [Example 311] has IC50 below 2000 nM. Can you tell?
false (0)

Strictly below 2000 nM in IC50? Cc1nc(COc2ncccn2)sc1-c1cccc(-c2ccc3c(C(=O)O)c[nH]c3c2)n1 [Example 334]
true (1)

Lab note: IC50 threshold 2000 nM. Does this compound come in strictly under it? Cc1nc(CNC(=O)C2CC2)sc1-c1csc(-c2cc(O)c(C(=O)O)cc2F)n1 [Example 232]
true (1)

Is 2000 nM strictly greater than the compound's reported IC50? compound: CN(C)C(=O)OCC1CCN(c2cccc(-c3ccc(C(=O)O)cc3)n2)CC1 [Example 25]
false (0)

Problem: For the compound Cc1nc(COc2ccccn2)sc1-c1cccc(-c2ccc(C(=O)O)cc2)c1 [Example 72] , is IC50 under 2000 nM?
true (1)

Bench note: check whether Cc1ccc(OCc2nc(C)c(-c3cccc(-c4ccc(C(=O)O)c(O)c4)c3)s2)nc1 [Example 82] shows IC50 below 2000 nM
true (1)

Given Cc1nc(C)c(-c2cc(-c3ccc(C(=O)O)cc3)ccc2C)s1 [Example 307] , is recorded IC50 strictly lower than 2000 nM?
false (0)

Is it true that IC50 reported for CC(=O)NCCc1nc(C)c(-c2cccc(-c3ccc(C(=O)O)c(O)c3)c2)s1 [Example 258] is less than 2000 nM?
false (0)

---

The following are reported IC50 results, target or system hBPGM (Homo sapiens (Human)).
Answer in nM, number only, no unit symbol.

Sample answers from the record:
Cc1nc(Cn2cc(C(F)(F)F)cn2)sc1-c1cccc(-c2ccc(C(=O)O)cc2)n1 [Example 60]    760
Cc1nc(COc2cnccn2)sc1-c1csc(-c2cc(O)c(C(=O)O)cc2F)n1 [Example 140]    95
Cc1nc(COC(=O)N(C)CCN(C)C)sc1-c1csc(-c2cc(O)c(C(=O)O)cc2F)n1 [Example 113]    130
Cc1nc(CNC(=O)c2ccn(C)n2)sc1-c1csc(-c2cc(O)c(C(=O)O)cc2F)n1 [Example 173]    49
Cc1cnc(OCc2nc(C)c(-c3csc(-c4cc(O)c(C(=O)O)cc4F)n3)s2)nc1 [Example 132]    45

Recall the recorded IC50 for Cc1nc(COc2ncccn2)sc1-c1cccc(-c2csc(C(=O)O)c2)n1 [Example 79] with hBPGM (Homo sapiens (Human)) and state it.
550

Lookup: IC50 / hBPGM (Homo sapiens (Human)) / Cc1nc(COc2ncccn2)sc1-c1nc(-c2ccc(C(=O)O)cc2)cs1 [Example 34]
340

Give recorded IC50 with hBPGM (Homo sapiens (Human)) for the following compound: Cc1nc(CNC(=O)c2cccnn2)sc1-c1cccc(-c2ccc(C(=O)O)c(O)c2)n1 [Example 148]
250

Recorded IC50 for COC(=O)NCc1cc(C)c(-c2csc(-c3cc(O)c(C(=O)O)cc3F)n2)s1 [Example 179] with hBPGM (Homo sapiens (Human)), please?
600

API: value(readout= IC50, system= hBPGM (Homo sapiens (Human)), query= Cc1nc(CNC(=O)C2CCNCC2)sc1-c1csc(-c2cc(O)c(C(=O)O)cc2F)n1 [Example 125] )
410

Lab request: please report IC50 under test system hBPGM (Homo sapiens (Human)) for Cc1nc(Cn2cccn2)sc1-c1csc(-c2cc(O)c(C(=O)O)cc2F)n1 [Example 248]
110

Tell me reported IC50 for Cc1nc(Cc2cccnc2)sc1-c1csc(-c2cc(O)c(C(=O)O)cc2F)c1 [Example 143] , tested with hBPGM (Homo sapiens (Human)).
200

GET /values?readout=IC50&system=hBPGM (Homo sapiens (Human))&item= Cc1nc(NCC(=O)N(C)C)sc1-c1csc(-c2cc(O)c(C(=O)O)cc2F)n1 [Example 178]
200

Enter reported IC50 observed with hBPGM (Homo sapiens (Human)) for Cc1nc(COc2ncccn2)sc1-c1cccc(-c2csc(C(=O)O)n2)n1 [Example 87]
3400

Return IC50 measured with hBPGM (Homo sapiens (Human)) given this compound: Cc1nc(COc2ncc(C(F)(F)F)cn2)sc1-c1cccc(-c2ccc(C(=O)O)cc2)n1 [Example 43]
23000

---

Reported values: IC50 for UniProtKB P07738, one per item.
Report the figure in nM without appending any unit label.

COC(=O)NCc1nc(C)c(-c2csc(-c3ccc(C(=O)O)cc3)n2)s1    730

Fill in: IC50 of COCCOCCOCCOCc1nc(C)c(-c2csc(-c3ccc(C(=O)O)cc3)n2)s1 is ___
4600

Need IC50 of COC(=O)NCc1nc(C)c(-c2cc(-c3cc(O)c(C(=O)O)cc3F)sn2)s1 , thanks.
370

For the compound shown here, Cc1nc(COc2ncccn2)sc1-c1cccc(-c2cc(C(=O)O)nn2C)n1 , give the reported IC50.
7400

What measured IC50 goes with COC(=O)NCc1nc(C)c(-c2csc(-c3cc(O)c(C(=O)O)cc3F)n2)s1 ?
250

Fill blank: measured IC50 of the compound Cc1ccc(Cc2nc(C)c(-c3cccc(-c4ccc(C(=O)O)c(O)c4)c3)s2)cn1 is ____.
360

Would you mind telling me what IC50 value was observed for Cc1nc(COc2ccc(C(F)(F)F)nc2)sc1-c1cccc(-c2ccc(C(=O)O)cc2)n1 ?
1300

What measured IC50 goes with Cc1nc(CNC(=O)c2ncccn2)sc1-c1csc(-c2cc(O)c(C(=O)O)cc2F)n1 ?
49

Tell me the measured IC50 of Cc1ccnc(NCc2nc(C)c(-c3cccc(-c4ccc(C(=O)O)c(O)c4)c3)s2)c1 , please.
1400

Name the recorded IC50 for Cc1nc(Cc2cccnc2)sc1-c1csc(-c2cc(O)c(C(=O)O)cc2F)n1 .
87

---

Entries and their pIC50 values follow.
- measurement-target: UniProt P07738
Units for pIC50: none; it is -log10 of a concentration expressed in mol/L.

For orientation, consider the following solved cases.
Cc1nc(C)c(-c2ccc(C)c(-c3ccc(C(=O)O)cc3)c2)s1 [Example 305]    4.09
Cc1nc(Cc2ccn(C)n2)sc1-c1csc(-c2ccc(C(=O)O)c(O)c2)c1 [Example 216]    6.72
COC(=O)NCc1nc(C)c(-c2csc(-c3cc(O)c(C(=O)NCC(=O)NCC(=O)O)cc3F)n2)s1 [Example 119]    6.47
Cc1nc(CNC(=O)c2ccccc2)sc1-c1csc(-c2cc(O)c(C(=O)O)cc2F)n1 [Example 212]    6.80
Cc1nc(CNC(=O)c2ccon2)sc1-c1csc(-c2cc(O)c(C(=O)O)cc2F)n1 [Example 152]    7.17

// map Cc1ccc(C#N)c(OCCc2nc(C)c(-c3cccc(-c4ccc(C(=O)O)c(O)c4)c3)s2)n1 [Example 107] to recorded pIC50 (system: UniProt P07738)
5.72

Lookup: pIC50 / UniProt P07738 / Cc1nc(C)c(-c2nsc(-c3cc(O)c(C(=O)O)cc3F)n2)s1 [Example 205]
5.96

What is its pIC50 for UniProt P07738? Entry: COC(=O)NC(C)c1nc(C)c(-c2csc(-c3cc(O)c(C(=O)O)cc3F)n2)s1 (centres unmarked) [Example 188]
7.26

Request: pIC50, test system UniProt P07738, entry Cc1nc(CNC(=O)C(C)(C)C)sc1-c1cccc(-c2ccc(C(=O)O)c(O)c2)c1 [Example 81]
6.35

Give pIC50 (UniProt P07738) of the following compound: Cc1nc(CNC(=O)C(C)(C)N(C)C)sc1-c1csc(-c2cc(O)c(C(=O)O)cc2F)n1 [Example 123]
6.28
